target: UniProtKB P59540; test: hT2R panel inhibition, transient HEK293 G16g44, agonist Strychnine 1 μM; type: cell-based; conditions: HEK293, read-out: screening result against bitter receptor 75, compound at 25 μM; receptor activated to EC80 with the corresponding agonist
Sequence (P59540 whole entry): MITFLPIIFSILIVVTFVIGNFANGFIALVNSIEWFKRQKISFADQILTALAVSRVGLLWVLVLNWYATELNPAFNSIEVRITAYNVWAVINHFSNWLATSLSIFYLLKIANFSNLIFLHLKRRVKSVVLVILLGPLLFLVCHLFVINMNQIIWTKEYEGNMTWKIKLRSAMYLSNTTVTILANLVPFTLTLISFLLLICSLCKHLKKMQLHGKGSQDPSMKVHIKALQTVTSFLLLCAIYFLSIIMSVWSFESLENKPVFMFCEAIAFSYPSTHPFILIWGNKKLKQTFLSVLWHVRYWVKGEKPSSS
READOUT NAME: inhibition at 25 µM

Completed entries (count: 4):
COc1ccccc1CN(Cc1ccc(C(=O)O)cc1)S(=O)(=O)c1ccc(O)cc1 [Example 5-42]	20 to 40%
COc1ccc(CN(Cc2ccccc2)S(=O)(=O)Cc2ccc(C(=O)O)cc2)cc1 [Example 5-16]	20 to 40%
COc1ccc(CN(Cc2ccccc2)S(=O)(=O)c2ccc(C(=O)O)cc2)cc1C [Example 5-89]	20 to 40%
O=C(O)c1ccc(CN(Cc2cccc(F)c2)S(=O)(=O)c2ccccc2)cc1 [Example 5-104]	40 to 60%

Form field: reported inhibition at 25 µM of CCc1ccc(CN(Cc2ccccc2)S(=O)(=O)c2ccc(C(=O)O)cc2)cc1 [Example 5-85]
20 to 40%

Form field: reported inhibition at 25 µM of Cc1ccccc1CN(Cc1ccccc1)S(=O)(=O)c1ccc(C(=O)O)cc1 [Example 5-80]
20 to 40%

Form field: reported inhibition at 25 µM of COc1ccc(CN(Cc2ccccc2Cl)S(=O)(=O)c2ccc(C(=O)O)cc2)cc1 [Example 5-68]
20 to 40%

Form field: reported inhibition at 25 µM of Cc1ccc(S(=O)(=O)N(Cc2ccccc2)CC2CCC(C(=O)O)CC2)cc1 (centres unmarked) [Example 5-11]
40 to 60%

====

molecular target: hT2R14 (Homo sapiens (Human)); assay: hT2R14 antagonist high-throughput FLIPR assay, stable cell line with G16g44, agonist aristolochic acid; assay type: cell-based; details: Table C; read-out: hT2R14 IC50
READOUT NAME: pIC50
Units for pIC50: none; it is -log10 of a concentration expressed in mol/L.

COc1ccc(CN(C2CCCc3ccccc32)S(=O)(=O)c2ccc(C(=O)O)cc2)cc1 (stereo not shown)	5.62
O=C(O)c1ccc(S(=O)(=O)N(Cc2ccccc2)Cc2cccc(F)c2)cc1	5.64
Cc1cc(NC(=S)N(Cc2ccccc2C)CC2CCC(C(=O)O)CC2)ccc1Cl (stereo not shown)	5.31

The record that follows has no pIC50 shown yet.
Form field: reported pIC50 of `COc1ccc(CN(Cc2ccc(F)cc2)S(=O)(=O)c2ccc(C(=O)O)cc2)cc1`
5.08

====

target: UniProt:P59536; test: hT2R panel inhibition, transient HEK293 G16g44, agonist Picric Acid 10 μM; assay type: cell-based; conditions: HEK293, compound at 25 μM; receptor activated to EC80 with agonist; read-out: inhibition of bitter receptor 71
Sequence (P59536 whole entry): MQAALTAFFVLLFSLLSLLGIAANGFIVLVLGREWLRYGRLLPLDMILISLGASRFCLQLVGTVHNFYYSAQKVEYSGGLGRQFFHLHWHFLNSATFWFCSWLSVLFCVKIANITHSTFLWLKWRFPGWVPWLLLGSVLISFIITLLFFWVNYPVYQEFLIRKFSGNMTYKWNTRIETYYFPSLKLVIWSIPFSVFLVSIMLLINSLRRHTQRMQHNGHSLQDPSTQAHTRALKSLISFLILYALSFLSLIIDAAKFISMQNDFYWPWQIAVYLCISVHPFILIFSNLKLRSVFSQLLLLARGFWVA
READOUT NAME: inhibition at 25 µM

Completed entries (count: 4):
CCN(C(=O)CN(C)S(=O)(=O)c1ccc2c(c1)n(C)c(=O)c(=O)n2C)c1cccc(C)c1	20 to 40%
Cn1c(=O)c2cc(S(=O)(=O)Nc3ccc4c(c3)OCO4)ccc2n(C)c1=O	60 to 80%
CCOc1ccc(CN(Cc2ccccc2)S(=O)(=O)c2ccc(C(=O)O)cc2)cc1	60 to 80%
Cn1c(=O)c(=O)n(C)c2cc(S(=O)(=O)Nc3ccc4c(c3)OCCO4)ccc21	20 to 40%

Form field: reported inhibition at 25 µM of `COc1ccc(OC)c(/C=C2\SC(=S)N(CCC(=O)O)C2=O)c1`
20 to 40%

Form field: reported inhibition at 25 µM of `CC(C)Oc1ccc(CN(Cc2ccccc2)S(=O)(=O)c2ccc(C(=O)O)cc2)cc1`
60 to 80%

Form field: reported inhibition at 25 µM of `CCCOc1ccc(CN(Cc2ccccc2)S(=O)(=O)c2ccc(C(=O)O)cc2)cc1`
60 to 80%

Form field: reported inhibition at 25 µM of `COc1ccc2c(c1)-c1ccccc1CN(S(=O)(=O)c1ccc(C(=O)O)cc1)C2`
20 to 40%

====

Here, each record is paired with measured inhibition at 25 µM data.
target: hT2R51 (Homo sapiens (Human), UniProt P59533); assay: hT2R panel inhibition, transient HEK293 G16g44, agonist Prop 2.5 μM; assay type: cell-based; conditions: HEK293, compound at 25 μM; receptor activated to EC80 with the corresponding agonist; read-out: screening result against bitter receptor 51
Sequence (P59533 whole entry): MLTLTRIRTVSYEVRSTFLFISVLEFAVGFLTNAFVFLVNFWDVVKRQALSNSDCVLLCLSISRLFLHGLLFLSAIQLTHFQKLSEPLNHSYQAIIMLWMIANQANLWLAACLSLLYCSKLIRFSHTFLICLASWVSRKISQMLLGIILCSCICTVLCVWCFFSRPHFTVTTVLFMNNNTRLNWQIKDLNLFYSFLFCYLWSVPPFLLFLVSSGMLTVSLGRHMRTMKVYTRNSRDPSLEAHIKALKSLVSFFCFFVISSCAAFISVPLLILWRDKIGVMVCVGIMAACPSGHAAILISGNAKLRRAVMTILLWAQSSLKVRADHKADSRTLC

Completed entries (count: 7):
COc1ccc(CN(Cc2ccccc2)S(=O)(=O)c2ccc(C(=O)O)cc2)c(OC)c1 [Example 5-13]	20 to 40%
CCOc1ccc(CN(Cc2ccco2)S(=O)(=O)c2ccc(C(=O)O)cc2)cc1 [Example 5-3]	20 to 40%
COc1ccc(CN(CC2CCCCC2)S(=O)(=O)c2ccc(C(=O)O)cc2)cc1 [Example 5-23]	40 to 60%
COc1ccc(CN(Cc2ccc(F)c(OC)c2)S(=O)(=O)c2ccc(C(=O)O)cc2)cc1 [Example 5-50]	20 to 40%
CSc1ccc(CN(Cc2ccccc2)S(=O)(=O)c2ccc(C(=O)O)cc2)cc1 [Example 5-78]	20 to 40%
COc1ccc(CN(Cc2ccc(OC)c(OC)c2)S(=O)(=O)c2ccc(C(=O)O)cc2)cc1 [Example 5-40]	20 to 40%
O=C(O)c1ccc(S(=O)(=O)N(Cc2ccccc2)Cc2cccc(Cl)c2)cc1 [Example 5-84]	60 to 80%

The record that follows has no inhibition at 25 µM shown yet.
Form field: reported inhibition at 25 µM of COc1cccc(CN(Cc2ccco2)S(=O)(=O)c2ccc(C(=O)O)cc2)c1 [Example 5-6]
40 to 60%

====

molecular target: hT2R8 (Homo sapiens (Human), UniProt Q9NYW2); assay: hT2R8 antagonist high-throughput FLIPR assay, stable cell line with G16g44, agonist andrographolide; format: cell-based; conditions: table after Example 10-97; read-out: hT2R8 IC50
Sequence (Q9NYW2 whole entry): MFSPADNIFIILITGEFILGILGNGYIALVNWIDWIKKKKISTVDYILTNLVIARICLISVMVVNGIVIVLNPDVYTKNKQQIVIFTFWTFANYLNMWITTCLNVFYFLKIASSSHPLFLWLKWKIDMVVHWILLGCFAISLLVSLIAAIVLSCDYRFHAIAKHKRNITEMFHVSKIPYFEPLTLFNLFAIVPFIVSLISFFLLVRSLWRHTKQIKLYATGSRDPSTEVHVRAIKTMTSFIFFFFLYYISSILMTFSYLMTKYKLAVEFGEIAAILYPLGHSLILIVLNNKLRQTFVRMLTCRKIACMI
Here, each record is paired with measured pIC50 data.
Units for pIC50: none; it is -log10 of a concentration expressed in mol/L.

Cc1noc(C)c1Cn1cc(-n2c(=O)[nH]c(=O)n(CCc3ccccc3)c2=O)cn1	5.21
COc1ccc(CCN2CC(=O)N(c3cnn(Cc4c(C)noc4C)c3)C2=O)cc1	7.36
COc1ccccc1CCN1CC(=O)N(c2cnn(Cc3c(C)noc3C)c2)C1=O	7.01
Cc1noc(C)c1Cn1cc(N2C(=O)NC(COCc3ccccc3)C2=O)cn1 (stereo not shown)	6.12
CCCCn1c(=O)n(-c2cnn(Cc3c(C)noc3C)c2)c(=O)n1Cc1ccccc1	6.39

Form field: reported pIC50 of Cc1noc(C)c1Cn1cc(N2C(=O)NC(C(C)C)C2=O)cn1 (stereo not shown)
5.84

Form field: reported pIC50 of Cc1noc(C)c1Cn1cc(N2C(=O)NC(CCCc3ccccc3)C2=O)cn1 (stereo not shown)
6.32

====

molecular target: hT2R14 (Homo sapiens (Human), UniProt Q9NYV8); experiment: hT2R14 antagonist high-throughput FLIPR assay, stable cell line with G16g44, agonist aristolochic acid; type: cell-based; conditions: Table B; read-out: hT2R14 IC50
Sequence (Q9NYV8 whole entry): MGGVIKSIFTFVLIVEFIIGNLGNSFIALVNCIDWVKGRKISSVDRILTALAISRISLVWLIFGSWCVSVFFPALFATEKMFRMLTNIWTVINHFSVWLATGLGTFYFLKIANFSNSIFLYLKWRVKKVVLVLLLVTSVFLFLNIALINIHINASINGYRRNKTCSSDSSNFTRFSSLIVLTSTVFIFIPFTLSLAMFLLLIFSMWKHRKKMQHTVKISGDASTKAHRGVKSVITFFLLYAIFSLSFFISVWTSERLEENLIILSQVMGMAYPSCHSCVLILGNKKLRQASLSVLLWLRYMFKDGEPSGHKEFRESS
READOUT NAME: IC50 (µM)
Report the figure in µM without appending any unit label.

Form field: reported IC50 of CC(C)CN(CC(C)C)S(=O)(=O)c1ccc(C(=O)O)cc1 [Compound 5-9, 4-(N,N-diisobutylsulfamoyl)benzoic acid]
15

====

molecular target: hT2R61 (Homo sapiens (Human), UniProt P59537); assay: hT2R panel inhibition, transient HEK293 G16g44, agonist Aristolochic Acid 25 nM; format: cell-based; conditions: HEK293, compound at 25 μM; receptor activated to EC80 with the corresponding agonist; read-out: screening result against bitter receptor 61
Sequence (P59537 whole entry): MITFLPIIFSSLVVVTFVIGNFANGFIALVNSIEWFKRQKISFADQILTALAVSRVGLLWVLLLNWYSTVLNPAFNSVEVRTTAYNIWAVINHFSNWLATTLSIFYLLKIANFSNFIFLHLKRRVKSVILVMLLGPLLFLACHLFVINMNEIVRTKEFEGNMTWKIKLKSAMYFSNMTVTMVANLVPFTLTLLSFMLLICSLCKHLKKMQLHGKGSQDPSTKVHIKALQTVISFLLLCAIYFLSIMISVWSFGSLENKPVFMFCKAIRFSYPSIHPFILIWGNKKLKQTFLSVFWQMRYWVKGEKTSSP
Here, each record is paired with measured inhibition at 25 µM data.

O=C(O)c1ccc(S(=O)(=O)N(Cc2ccccc2)Cc2ccccc2F)cc1 [Example 5-72]	60 to 80%
COc1ccc(N(Cc2ccccc2)S(=O)(=O)c2ccc(C(=O)O)cc2)cc1 [Example 5-35]	> 80%
COc1ccc(CN(Cc2ccccc2)S(=O)(=O)CCC(=O)O)cc1 [Example 5-57]	> 80%

The record that follows has no inhibition at 25 µM shown yet.
Give recorded inhibition at 25 µM with hT2R61 (Homo sapiens (Human), UniProt P59537) for the following compound: O=C(O)c1ccc(S(=O)(=O)N(Cc2ccccc2)Cc2ccc3c(c2)OCO3)cc1 [Example 5-93]
> 80%

====

Here, each record is paired with measured inhibition at 25 µM data.
biological target: hT2R61 (Homo sapiens (Human), UniProt P59537); experiment: hT2R panel inhibition, transient HEK293 G16g44, agonist Aristolochic Acid 25 nM; assay type: cell-based; conditions: HEK293, compound at 25 μM; receptor activated to EC80 with the corresponding agonist; read-out: screening result against bitter receptor 61

Completed entries (count: 2):
N#Cc1ccccc1CN(Cc1ccccc1)S(=O)(=O)c1ccc(C(=O)O)cc1	> 80%
COc1ccc(CN(Cc2cccnc2)S(=O)(=O)c2ccc(C(=O)O)cc2)cc1	40 to 60%

Form field: reported inhibition at 25 µM of `COc1ccc(CN(Cc2cccs2)S(=O)(=O)c2ccc(C(=O)O)cc2)cc1`
40 to 60%

Form field: reported inhibition at 25 µM of `COc1ccccc1CN(Cc1ccco1)S(=O)(=O)c1ccc(C(=O)O)cc1`
> 80%
